The following molecules are listed with their measured melting point values.

For the molecule shown here, `CNC(=O)CNC(=O)N(Cc1ccc(-c2noc(C(F)(F)F)n2)cc1)OC` , give the reported melting point.
126 to 130 °C

Next entry: CON(Cc1ccc(-c2noc(C(F)(F)F)n2)cc1)C(=O)C(C)NC(=O)OC(C)(C)C (stereo not shown)
108.8 to 111.9 °C

Quick one: CON(Cc1ccc(-c2noc(C(F)(F)F)n2)cc1)C(=O)C(NC(=O)C1CC1)C(C)C (stereo not shown)
104.4 to 109 °C

Now this one: `O=C(C1CC1)N(O)Cc1ccc(-c2noc(C(F)(F)F)n2)cc1`
141.2 to 143.5 °C

# iterate: CCC(=O)N(C)C(C#N)c1ccc(-c2noc(C(F)(F)F)n2)cc1 (stereo not shown)
75 to 76 °C

***
Which measured melting point value corresponds to `CCONC(=O)N(Cc1ccc(-c2noc(C(F)(F)F)n2)cc1)OC` ?
107 to 110 °C

Now consider `CON(Cc1ccc(-c2noc(C(F)(F)F)n2)cc1)C(=O)NCC1CC1` .
77 to 81.4 °C

Proceed to `CON(Cc1ccc(-c2noc(C(F)(F)F)n2)cn1)C(=O)c1ccccc1Cl`
80 to 89 °C

Queued: `COC(=O)N(O)Cc1ccc(-c2noc(C(F)(F)F)n2)cc1`
73 to 75.1 °C

Lookup `CON(Cc1ccc(-c2noc(C(F)(F)F)n2)cc1)C(=O)Cn1cncn1`
125.1 to 127.2 °C

Ok, now `CCC(=O)NCC(=O)N(Cc1ccc(-c2noc(C(F)(F)F)n2)cc1)OC`
115.3 to 117.8 °C

Follow-up entry: `CNC(=O)N(C)Cc1ccc(-c2noc(C(F)(F)F)n2)cc1`
95 to 98 °C

Then what about the molecule `CN(Cc1ccc(-c2noc(C(F)(F)F)n2)cc1)C(=O)NC1CC1` ?
113 to 121 °C
